biological target: matrix metalloproteinase-9 (Homo sapiens, UniProt P14780); assay: Inhibition test of matrix metalloproteinase-9 activity (fluorogenic substrate, activated pro-MMP-9)
Sequence (P14780 107-707 limits assumed, species assumed): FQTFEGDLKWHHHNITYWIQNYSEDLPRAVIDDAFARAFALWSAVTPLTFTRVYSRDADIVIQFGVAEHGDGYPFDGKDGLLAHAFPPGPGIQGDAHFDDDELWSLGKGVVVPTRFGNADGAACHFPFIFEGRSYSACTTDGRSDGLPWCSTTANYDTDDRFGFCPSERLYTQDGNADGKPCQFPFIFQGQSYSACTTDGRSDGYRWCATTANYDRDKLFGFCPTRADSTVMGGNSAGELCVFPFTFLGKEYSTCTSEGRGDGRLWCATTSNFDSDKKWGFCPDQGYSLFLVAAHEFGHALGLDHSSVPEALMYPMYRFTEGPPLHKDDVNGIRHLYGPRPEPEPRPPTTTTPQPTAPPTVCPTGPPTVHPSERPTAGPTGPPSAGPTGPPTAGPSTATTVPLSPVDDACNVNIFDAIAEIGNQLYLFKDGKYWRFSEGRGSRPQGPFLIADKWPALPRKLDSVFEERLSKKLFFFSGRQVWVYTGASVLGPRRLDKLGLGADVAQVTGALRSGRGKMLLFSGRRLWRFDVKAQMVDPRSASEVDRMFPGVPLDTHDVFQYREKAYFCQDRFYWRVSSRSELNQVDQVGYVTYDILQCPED

compound: CC(C)(C)OC(=O)N[C@@H](Cc1c[nH]cn1)C(=O)O [BocHis, Boc-histidine, reference compound]
measurement_target: matrix metalloproteinase-9 (Homo sapiens, UniProt P14780)
uom: mM
IC50: 10.3
